target entity: human MAP4K4 kinase domain (Homo sapiens (Human), UniProt O95819)
Sequence (O95819 25-289): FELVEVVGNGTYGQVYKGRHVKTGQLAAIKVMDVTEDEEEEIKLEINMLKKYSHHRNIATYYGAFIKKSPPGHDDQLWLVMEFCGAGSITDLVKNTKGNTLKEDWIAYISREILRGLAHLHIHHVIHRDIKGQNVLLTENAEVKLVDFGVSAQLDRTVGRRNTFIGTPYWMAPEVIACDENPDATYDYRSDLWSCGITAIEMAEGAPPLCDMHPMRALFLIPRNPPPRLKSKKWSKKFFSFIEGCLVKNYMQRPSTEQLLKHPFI
assay details: MAP4K4 kinase activity, CisBio HTRF Transcreener ADP assay
Format: biochemical
experimental parameters: ATP at Km (10 μM), 0.5 nM kinase domain, 2 h; read-out: MAP4K4
measured attribute: IC50

Past entries and their recorded results:
NC(=O)c1cccc(-n2cc(-c3ccccc3)c3c(=O)[nH]cnc32)c1 : ≤ 100 nM
O=c1[nH]cnc2c1c(-c1ccc(OCCO)cc1)cn2-c1ccccc1 : ≤ 100 nM

# IC50 of O=c1[nH]cnc2c1c(-c1ccc(OCC(O)CO)cc1)cn2-c1ccccc1 (stereo not drawn) = ≤ 100 nM

# IC50 of O=c1[nH]cnc2c(-c3ccccc3)cn(-c3ccccc3)c12 = ≤ 100 nM

# IC50 of CN(CC(O)COc1ccc(-c2cn(-c3ccccc3)c3c(=O)[nH]cnc23)cc1)C1CC1 (stereo not drawn) = 100 to 1000 nM

# IC50 of CN1CCN(CC(=O)Nc2ccc(-c3cn(-c4ccccc4)c4nc[nH]c(=O)c34)cc2)CC1 = ≤ 100 nM

# IC50 of O=c1[nH]cnc2c(-c3ccc(OCC4CCNC4)cc3)cn(-c3ccccc3)c12 (stereo not drawn) = > 1000 nM

# IC50 of CN1CC(COc2ccc(-c3cn(-c4ccccc4)c4nc[nH]c(=O)c34)cc2)C1 = 100 to 1000 nM

# IC50 of O=c1[nH]cnc2c1c(-c1c(F)cccc1F)cn2-c1ccccc1 = 100 to 1000 nM

----------
target entity: Aurora B (Homo sapiens (Human))
Sequence (Q96GD4 whole entry): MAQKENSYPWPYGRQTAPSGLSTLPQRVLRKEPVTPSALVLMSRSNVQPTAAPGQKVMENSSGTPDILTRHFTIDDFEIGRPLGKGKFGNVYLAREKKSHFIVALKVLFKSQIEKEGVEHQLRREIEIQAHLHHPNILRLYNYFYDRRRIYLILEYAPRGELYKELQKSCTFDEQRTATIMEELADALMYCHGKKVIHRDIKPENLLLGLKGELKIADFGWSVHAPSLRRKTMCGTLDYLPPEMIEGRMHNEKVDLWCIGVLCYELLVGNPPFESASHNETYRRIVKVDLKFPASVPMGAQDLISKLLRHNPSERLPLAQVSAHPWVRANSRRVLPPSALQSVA
assay details: Kinase selectivity panel: Aurora B
Assay type: biochemical
experimental parameters: read-out: pIC50 Aurora B (converted)
Excerpt: Compounds of the present invention were screened for their inhibitory activity against MAP4K4, versus selected off-target hits found with early members of this chemical series. MAP4K4 kinase activity was monitored using the CisBio HTRF Transcreener ADP assay, acompetitive immunoassay with a reproducible Z′>0.6. […] A ratiometric fluorescent read-out is used at 665 and 620 nm. […]
measured attribute: IC50 (µM)
Response body: numeric value in µM, unit text excluded.

Past entries and their recorded results:
COc1cccc(-c2cn(-c3ccccc3)c3nc[nH]c(=O)c23)c1 : 31.6
O=c1[nH]cnc2c1c(-c1ccc(OCCCN3CCOCC3)cc1)cn2-c1ccccc1 : 10
O=C1NCCN1c1ccc(-c2cn(-c3ccccc3)c3nc[nH]c(=O)c23)cc1 : 31.6

Field: next molecule
With Aurora B (Homo sapiens (Human)) as the test system, O=c1[nH]cnc2c1c(-c1ccc(OCCO)cc1F)cn2-c1ccccc1 showed IC50 of 6.31

----------
assay details: Pharmacokinetics in mice (IV and oral)
experimental parameters: mouse, plasma, po, 50 mg kg-1
measured attribute: concentration at 1 h
State the value with its unit after it.

# concentration at 1 h of COCCOc1ccc(-c2cn(-c3ccccc3)c3nc[nH]c(=O)c23)cc1 [Ex-58] = 334 nM

----------
Each entry below carries its reported pIC50.
target entity: human MAP4K4 kinase domain (Homo sapiens (Human), UniProt O95819)
assay details: MAP4K4 kinase activity, CisBio HTRF Transcreener ADP assay
Assay type: biochemical
experimental parameters: ATP at Km (10 μM), 0.5 nM kinase domain, 2 h; read-out: MAP4K4
pIC50: −log10 of the molar value.

Past entries and their recorded results:
CC(C)(O)COc1ccc(-c2cn(-c3ccccc3)c3nc[nH]c(=O)c23)cc1 : ≥ 7.00
O=c1[nH]cnc2c1c(-c1ccc(OCCCN3CCOCC3)cc1)cn2-c1ccccc1 : ≥ 7.00
O=C1N(CCO)CCN1c1ccc(-c2cn(-c3ccccc3)c3nc[nH]c(=O)c23)cc1 : ≥ 7.00
O=C(CN1CCOCC1)Nc1ccc(-c2cn(-c3ccccc3)c3nc[nH]c(=O)c23)cc1 : ≥ 7.00
O=C1CCCN1c1ccc(-c2cn(-c3cccc(F)c3)c3nc[nH]c(=O)c23)cc1 : ≥ 7.00
COc1ccc(-n2cc(-c3ccc(OCCCN(C)C)cc3)c3nc[nH]c(=O)c32)cc1 : ≥ 7.00
O=C1CCCCN1c1ccc(-c2cn(-c3ccccc3)c3nc[nH]c(=O)c23)cc1 : 6.00 to 7.00
CC(=O)NCc1cccc(-c2cn(-c3ccccc3)c3nc[nH]c(=O)c23)c1 : 6.00 to 7.00
NC(=O)c1ccc(-n2cc(-c3ccccc3)c3c(=O)[nH]cnc32)cc1 : 6.00 to 7.00
CN(C)CCCOc1ccc(-c2cn(-c3ccccc3)c3nc[nH]c(=O)c23)cc1 : ≥ 7.00

# pIC50 of O=c1[nH]cnc2c(-c3ccc(OCC(O)CN4CCCC4)cc3)cn(-c3ccccc3)c12 (centres unmarked) = 6.00 to 7.00

# pIC50 of O=c1[nH]cnc2c1c(-c1ccc(OCC(O)CN3CCS(=O)(=O)CC3)cc1)cn2-c1ccccc1 (centres unmarked) = ≥ 7.00

----------
target entity: ABL1 (Homo sapiens (Human), UniProt P00519)
Sequence (P00519 whole entry, species assumed): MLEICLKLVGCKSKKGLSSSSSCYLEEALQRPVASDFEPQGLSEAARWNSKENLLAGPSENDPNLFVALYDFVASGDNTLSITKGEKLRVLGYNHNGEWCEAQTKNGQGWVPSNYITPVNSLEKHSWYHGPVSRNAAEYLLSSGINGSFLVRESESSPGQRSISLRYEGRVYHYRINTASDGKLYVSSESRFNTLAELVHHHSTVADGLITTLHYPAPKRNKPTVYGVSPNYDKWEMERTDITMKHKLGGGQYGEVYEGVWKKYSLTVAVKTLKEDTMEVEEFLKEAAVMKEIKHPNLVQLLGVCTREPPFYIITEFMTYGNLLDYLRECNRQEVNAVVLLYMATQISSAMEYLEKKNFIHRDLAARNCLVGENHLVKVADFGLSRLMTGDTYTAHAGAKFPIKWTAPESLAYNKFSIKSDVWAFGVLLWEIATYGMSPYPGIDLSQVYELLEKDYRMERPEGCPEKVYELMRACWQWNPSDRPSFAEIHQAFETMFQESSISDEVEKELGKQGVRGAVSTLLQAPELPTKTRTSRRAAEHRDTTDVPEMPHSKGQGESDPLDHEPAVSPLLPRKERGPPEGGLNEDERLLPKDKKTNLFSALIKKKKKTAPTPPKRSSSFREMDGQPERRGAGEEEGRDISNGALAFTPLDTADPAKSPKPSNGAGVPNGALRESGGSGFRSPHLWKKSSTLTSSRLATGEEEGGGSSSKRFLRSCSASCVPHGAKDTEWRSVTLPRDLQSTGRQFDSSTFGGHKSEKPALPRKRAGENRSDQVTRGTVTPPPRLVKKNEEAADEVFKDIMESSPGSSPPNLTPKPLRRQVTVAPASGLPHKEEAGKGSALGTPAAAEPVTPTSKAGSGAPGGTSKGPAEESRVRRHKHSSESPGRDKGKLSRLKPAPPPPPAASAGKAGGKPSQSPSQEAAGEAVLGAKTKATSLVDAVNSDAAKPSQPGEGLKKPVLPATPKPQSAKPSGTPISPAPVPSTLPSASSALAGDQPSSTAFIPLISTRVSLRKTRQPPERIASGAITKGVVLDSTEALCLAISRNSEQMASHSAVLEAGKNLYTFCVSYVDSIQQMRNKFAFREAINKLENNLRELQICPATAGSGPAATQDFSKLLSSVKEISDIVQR
assay details: Kinase selectivity panel: ABL1
Type: biochemical
experimental parameters: read-out: pIC50 ABL1 (converted)
measured attribute: IC50 (nM)
Response body: numeric value in nM, unit text excluded.

Past entries and their recorded results:
O=c1[nH]cnc2c1c(-c1ccc(OCCCN3CCOCC3)cc1)cn2-c1ccccc1 [Ex-27] : 3160
COc1cccc(-c2cn(-c3ccccc3)c3nc[nH]c(=O)c23)c1 [Ex-22] : 31600
O=c1[nH]cnc2c1c(-c1ccc(OCCO)cc1F)cn2-c1ccccc1 [Ex-56] : 2000

Field: next molecule
# IC50 of O=C1NCCN1c1ccc(-c2cn(-c3ccccc3)c3nc[nH]c(=O)c23)cc1 [Ex-61] = 794

----------
target entity: human MAP4K4 kinase domain (Homo sapiens (Human), UniProt O95819)
assay details: MAP4K4 kinase activity, CisBio HTRF Transcreener ADP assay
Assay type: biochemical
experimental parameters: ATP at Km (10 μM), 0.5 nM kinase domain, 2 h; read-out: MAP4K4
Each entry below carries its reported IC50.

# IC50 of NC(=O)Cc1ccc(-c2cn(-c3ccccc3)c3nc[nH]c(=O)c23)cc1 = ≤ 100 nM

# IC50 of CNCc1cccc(-c2cn(-c3ccccc3)c3nc[nH]c(=O)c23)c1 = > 1000 nM

# IC50 of CNCCC(=O)Nc1ccc(-c2cn(-c3ccccc3)c3nc[nH]c(=O)c23)cc1 = ≤ 100 nM

# IC50 of CN(C)Cc1cccc(-c2cn(-c3ccccc3)c3nc[nH]c(=O)c23)c1 = > 1000 nM

# IC50 of CN(Cc1cccc(-c2cn(-c3ccccc3)c3nc[nH]c(=O)c23)c1)C(=O)OC(C)(C)C = 100 to 1000 nM

# IC50 of O=C(O)c1ccc(-c2cn(-c3ccccc3)c3c(=O)[nH]cnc23)cc1 = 100 to 1000 nM

# IC50 of O=c1[nH]cnc2c1c(-c1ccccc1)cn2-c1ccc(Cn2ccnc2)cc1 = > 1000 nM

# IC50 of CN(C)CC(O)COc1ccc(-c2cn(-c3ccccc3)c3nc[nH]c(=O)c23)cc1 (centres unmarked) = ≤ 100 nM

# IC50 of N#Cc1ccc(-c2cn(-c3ccccc3)c3c(=O)[nH]cnc23)cc1 = 100 to 1000 nM

# IC50 of N#Cc1cccc(-c2cn(-c3ccccc3)c3c(=O)[nH]cnc23)c1 = 100 to 1000 nM

# IC50 of O=C(O)c1ccc(-n2cc(-c3ccccc3)c3c(=O)[nH]cnc32)cc1 = 100 to 1000 nM

# IC50 of CC(C)(O)CN1CCN(c2ccc(-c3cn(-c4ccccc4)c4nc[nH]c(=O)c34)cc2)C1=O = ≤ 100 nM

# IC50 of O=C(O)c1cccc(-c2cn(-c3ccccc3)c3c(=O)[nH]cnc23)c1 = > 1000 nM

# IC50 of CC(=O)Nc1ccc(-c2cn(-c3ccccc3)c3nc[nH]c(=O)c23)cc1 = ≤ 100 nM

# IC50 of O=c1[nH]cnc2c1c(-c1ccc(Cn3ccnc3)cc1)cn2-c1ccccc1 = ≤ 100 nM

# IC50 of O=C(CO)Nc1ccc(-c2cn(-c3ccccc3)c3nc[nH]c(=O)c23)cc1 = ≤ 100 nM

# IC50 of O=c1[nH]cnc2c1c(-c1ccc(N3CCCC3)cc1)cn2-c1ccccc1 = ≤ 100 nM

----------
target entity: TNIK/MAP4K7 (Homo sapiens (Human), UniProt Q9UKE5)
Sequence (Q9UKE5 whole entry): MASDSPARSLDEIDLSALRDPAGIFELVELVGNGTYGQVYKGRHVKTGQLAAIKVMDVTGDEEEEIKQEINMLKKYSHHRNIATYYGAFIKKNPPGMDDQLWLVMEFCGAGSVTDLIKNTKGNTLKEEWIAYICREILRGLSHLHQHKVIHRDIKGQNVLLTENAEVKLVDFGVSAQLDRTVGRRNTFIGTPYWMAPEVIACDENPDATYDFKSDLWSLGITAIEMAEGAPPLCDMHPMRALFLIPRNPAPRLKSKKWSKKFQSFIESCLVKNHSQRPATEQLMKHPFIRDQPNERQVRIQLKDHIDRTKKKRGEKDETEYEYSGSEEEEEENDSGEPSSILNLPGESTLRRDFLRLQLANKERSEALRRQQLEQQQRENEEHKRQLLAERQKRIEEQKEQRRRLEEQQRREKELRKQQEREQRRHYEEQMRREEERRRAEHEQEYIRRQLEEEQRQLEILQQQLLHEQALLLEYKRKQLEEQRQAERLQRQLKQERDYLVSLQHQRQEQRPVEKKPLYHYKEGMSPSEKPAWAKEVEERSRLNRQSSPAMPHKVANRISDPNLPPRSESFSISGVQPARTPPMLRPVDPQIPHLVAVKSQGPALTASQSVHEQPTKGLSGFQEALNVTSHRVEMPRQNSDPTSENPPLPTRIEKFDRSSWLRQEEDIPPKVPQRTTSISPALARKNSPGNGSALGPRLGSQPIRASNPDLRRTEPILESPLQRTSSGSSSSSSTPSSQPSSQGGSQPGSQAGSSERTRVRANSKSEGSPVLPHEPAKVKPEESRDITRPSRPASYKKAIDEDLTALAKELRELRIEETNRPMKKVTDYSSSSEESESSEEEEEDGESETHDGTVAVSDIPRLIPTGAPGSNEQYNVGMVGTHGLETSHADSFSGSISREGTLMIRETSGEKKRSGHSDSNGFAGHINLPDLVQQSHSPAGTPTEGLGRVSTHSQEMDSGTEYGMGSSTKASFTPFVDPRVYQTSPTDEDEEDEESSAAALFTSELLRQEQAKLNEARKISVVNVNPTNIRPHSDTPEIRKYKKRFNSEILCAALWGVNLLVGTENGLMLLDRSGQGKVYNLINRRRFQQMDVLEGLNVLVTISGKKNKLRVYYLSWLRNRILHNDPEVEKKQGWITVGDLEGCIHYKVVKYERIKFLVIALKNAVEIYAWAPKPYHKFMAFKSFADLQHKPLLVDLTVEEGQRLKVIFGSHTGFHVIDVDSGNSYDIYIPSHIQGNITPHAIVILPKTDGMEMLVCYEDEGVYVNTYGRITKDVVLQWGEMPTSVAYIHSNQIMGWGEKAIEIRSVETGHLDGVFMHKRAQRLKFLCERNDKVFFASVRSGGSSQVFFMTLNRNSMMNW
assay details: Kinase selectivity panel: TNIK/MAP4K7
Format: biochemical
experimental parameters: read-out: pIC50 TNIK/MAP4K7 (converted)
Source text: Compounds of the present invention were screened for their inhibitory activity against MAP4K4, versus selected off-target hits found with early members of this chemical series. MAP4K4 kinase activity was monitored using the CisBio HTRF Transcreener ADP assay, acompetitive immunoassay with a reproducible Z′>0.6. […] A ratiometric fluorescent read-out is used at 665 and 620 nm. […]
Each entry below carries its reported IC50.
Response body: numeric value in nM, unit text excluded.

Past entries and their recorded results:
O=C1NCCN1c1ccc(-c2cn(-c3ccccc3)c3nc[nH]c(=O)c23)cc1 [Ex-61] : 5.01
O=c1[nH]cnc2c1c(-c1ccc(OCCCN3CCOCC3)cc1)cn2-c1ccccc1 [Ex-27] : 10
COc1cccc(-c2cn(-c3ccccc3)c3nc[nH]c(=O)c23)c1 [Ex-22] : 200

Field: next molecule
# IC50 of O=c1[nH]cnc2c1c(-c1ccc(OCCO)cc1F)cn2-c1ccccc1 [Ex-56] = 20
